The following molecules are listed with their measured electrical conductivity values.
Conditions: 378.15 K; 101.33 kPa; Liquid; Alternating current cell with electrodes

MOLECULE	electrical conductivity, S/m
CCCCn1cc[n+](C)c1.O=S(=O)([N-]S(=O)(=O)C(F)(F)C(F)(F)F)C(F)(F)C(F)(F)F [1-butyl-3-methylimidazolium bis(perfluoroethylsulfonyl)imide]	1.56
CC(=O)[O-].CCn1cc[n+](C)c1 [1-ethyl-3-methylimidazolium acetate]	3.8
CCCCCCCCn1cc[n+](C)c1.O=S(=O)([N-]S(=O)(=O)C(F)(F)F)C(F)(F)F	1.34
CCCCCC[n+]1ccn(C)c1.O=S(=O)([N-]S(=O)(=O)C(F)(F)F)C(F)(F)F	1.88
